target: Voltage-gated inwardly rectifying potassium channel KCNH2 (Homo sapiens) (UniProt Q12809); test: Human Ether-a-go-go-Related Gene (hERG) channel small molecule antagonists: fluorescence cell-based qHTS assay (AID 1671200); settings: hERG-U2OS cells, FluxOR thallium flux fluorescence; series mostly up to 76.8 µM; also: nearly all actives have a fitted effect of over 50% in size
Sequence (Q12809 whole entry, looked up): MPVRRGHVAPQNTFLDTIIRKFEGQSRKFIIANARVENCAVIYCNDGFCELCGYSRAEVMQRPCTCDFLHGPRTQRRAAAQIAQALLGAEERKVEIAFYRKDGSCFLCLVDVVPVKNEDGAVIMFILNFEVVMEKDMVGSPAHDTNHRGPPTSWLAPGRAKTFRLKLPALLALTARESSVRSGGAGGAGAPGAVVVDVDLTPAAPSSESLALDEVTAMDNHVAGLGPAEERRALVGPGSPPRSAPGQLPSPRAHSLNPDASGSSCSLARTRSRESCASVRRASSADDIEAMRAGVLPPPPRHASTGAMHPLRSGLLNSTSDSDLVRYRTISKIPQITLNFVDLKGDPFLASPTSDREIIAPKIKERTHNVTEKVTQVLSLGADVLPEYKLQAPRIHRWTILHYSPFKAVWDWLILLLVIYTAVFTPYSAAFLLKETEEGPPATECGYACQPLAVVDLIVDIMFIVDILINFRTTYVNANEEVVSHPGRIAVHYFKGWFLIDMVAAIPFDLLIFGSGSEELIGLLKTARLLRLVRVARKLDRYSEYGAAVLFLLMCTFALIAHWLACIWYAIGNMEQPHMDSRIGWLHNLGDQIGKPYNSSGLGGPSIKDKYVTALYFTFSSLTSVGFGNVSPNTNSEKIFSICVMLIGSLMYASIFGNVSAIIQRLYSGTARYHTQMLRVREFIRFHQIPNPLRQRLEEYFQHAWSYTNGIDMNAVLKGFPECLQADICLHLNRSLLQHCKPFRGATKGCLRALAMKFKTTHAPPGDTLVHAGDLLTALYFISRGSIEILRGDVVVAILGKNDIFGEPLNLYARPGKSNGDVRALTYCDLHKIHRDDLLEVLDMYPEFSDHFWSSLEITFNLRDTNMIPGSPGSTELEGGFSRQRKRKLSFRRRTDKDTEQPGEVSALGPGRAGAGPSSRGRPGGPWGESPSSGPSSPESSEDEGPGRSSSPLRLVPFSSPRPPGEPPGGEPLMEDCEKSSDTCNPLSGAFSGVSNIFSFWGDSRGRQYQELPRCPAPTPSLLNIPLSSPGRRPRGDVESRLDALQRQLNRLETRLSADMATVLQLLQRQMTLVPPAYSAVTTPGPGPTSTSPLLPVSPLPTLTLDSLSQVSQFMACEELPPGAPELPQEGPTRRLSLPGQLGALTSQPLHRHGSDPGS
Results filed as inconclusive are left out. The source made the active and inactive calls. Calls follow the shape of the dose curve; as a rule, active = well fitted inhibition curve with a large enough effect in the repeat runs; inconclusive = weak or mixed curves; inactive = flat fitted curve, though single readings scatter.
Please state which outcome applies, choosing from active, inactive

>>> classification("O=C(O)c1cccnc1Nc1cccc(C(F)(F)F)c1")
"inactive"
>>> classification("Sc1nc(S)nc(S)n1")
"inactive"
>>> classification("CC(C)(Cc1c[nH]c2ccccc12)NCC(O)COc1ccccc1C#N (stereo not given)")
"active"
>>> classification("CCOC(C)OCC")
"inactive"
>>> classification("CCCCCCCCCC(C)C=O (stereo not given)")
"inactive"

Hey, what did the test say about C1CCN(CN2CCCCC2)CC1 ?
inactive

Outcome? CC1(C)C(=O)NC(=O)N1CO
inactive

Dear all, I need the recorded test outcome for O=C(c1ccco1)N1CCNCC1 , thank you.
inactive

Please share the test call associated with Cc1cccc(C)c1NC(=O)CN1CCCC1 .
inactive

Per the records of this test, what outcome belongs to CCCc1nc(C)c2c(=O)[nH]c(-c3cc(S(=O)(=O)N4CCN(CC)CC4)ccc3OCC)nn12 ?
inactive

What outcome does the record of this test show for O=C(O)c1cc(C(=O)O)c(C(=O)O)cc1C(=O)O ?
inactive

Dear colleague, could you share the recorded outcome for COC(=O)C(C)(C)C when you have a moment?
inactive

How was C=Cc1ccc(C=C)cc1 classified in this test?
inactive

Could you please tell me the result logged for OCCCO in this assay?
inactive

Kindly provide the recorded test outcome for the following compound: C[C@H](CN1CCCC1)C(=O)c1ccc(C(F)(F)F)cc1
inactive
